experiment: Single intravenous dose escalation of P5P, plasma pharmacokinetics (Examples Two and Three); format: in vivo, human; conditions: both sexes, human, plasma, iv, 5 mg/kg, Group 2, P5P 5 mg/kg single iv; plasma PA; mean
quantity name: Tmax (min)
Reply with just the number (in min).

// query State the recorded Tmax for this entry: Cc1ncc(CO)c(C(=O)O)c1O
// result 42.6

* * *

assay: Single intravenous dose escalation of P5P, plasma pharmacokinetics (Examples Two and Three); assay type: in vivo, human; settings: both sexes, human, plasma, iv, 5 mg/kg, Group 2, P5P 5 mg/kg single iv; plasma PA; mean
quantity name: MRT

// query Using the record for Cc1ncc(CO)c(C(=O)O)c1O , report its MRT.
// result 3.48 h

* * *

experiment: Single intravenous dose escalation of P5P, plasma pharmacokinetics (Examples Two and Three); assay type: in vivo, human; details: both sexes, human, plasma, iv, 10 mg/kg, Group 4, dose 10 mg/kg, single iv; plasma P5P; mean
quantity name: clearance (mL/min)
Hi! Could you send only the number? It should be in mL/min, unit omitted.

// query I'd like to know its clearance. The compound in question is Cc1ncc(COP(=O)(O)O)c(C=O)c1O [P5P, Pyridoxal 5′-phosphate, reference compound]
// result 39.8

* * *

assay: Single intravenous dose escalation of P5P, plasma pharmacokinetics (Examples Two and Three); format: in vivo, human; settings: both sexes, human, plasma, iv, 20 mg/kg, P5P 20 mg/kg single iv bolus, fasting
quantity name: Tmax
Dear colleague, please send the value followed by its unit.

// query So what's the measured Tmax for this one? Cc1ncc(COP(=O)(O)O)c(C=O)c1O [P5P, Pyridoxal 5′-phosphate, reference compound]
// result 9 min

* * *

test: Once daily intravenous 10 mg/kg P5P for four days, urinary excretion and renal clearance (Example Four); format: in vivo, human; details: human, urine and plasma, iv, 10 mg/kg, 10 mg/kg iv once daily, 4 days; Day 4; P5P uncorrected; mean; read-out: CLR, renal clearance (converted)
quantity name: CL renal
Field: value (include unit after the number)

// query Query: CL renal; subject: Cc1ncc(COP(=O)(O)O)c(C=O)c1O [P5P, Pyridoxal 5′-phosphate, reference compound]
// result 0.029 mL/min

* * *

test: Single intravenous dose escalation of P5P, plasma pharmacokinetics (Examples Two and Three); assay type: in vivo, human; conditions: both sexes, human, plasma, iv, 5 mg/kg, Group 2, P5P 5 mg/kg single iv; plasma PAL; mean
quantity name: Tmax (min)
Numeric only. Scale: min

// query Quick check: Tmax of Cc1ncc(CO)c(C=O)c1O ?
// result 42.6

* * *

experiment: Single intravenous dose escalation of P5P, plasma pharmacokinetics (Examples Two and Three); format: in vivo, human; settings: both sexes, human; Group 3, P5P 10 mg/kg single iv; plasma PA; mean
quantity name: AUC(0-inf) (ng·h/mL)
Output spec: scalar in ng·h/mL, unitless text.

// query Quick one: AUC(0-inf) of Cc1ncc(CO)c(C(=O)O)c1O [PA, 4-pyridoxic acid] ?
// result 23000
